binding signal reference
Biological target: GST-Nv-NF-kB (Ser allele) (Nematostella vectensis, UniProt A7UNT2 2-411)
Sequence: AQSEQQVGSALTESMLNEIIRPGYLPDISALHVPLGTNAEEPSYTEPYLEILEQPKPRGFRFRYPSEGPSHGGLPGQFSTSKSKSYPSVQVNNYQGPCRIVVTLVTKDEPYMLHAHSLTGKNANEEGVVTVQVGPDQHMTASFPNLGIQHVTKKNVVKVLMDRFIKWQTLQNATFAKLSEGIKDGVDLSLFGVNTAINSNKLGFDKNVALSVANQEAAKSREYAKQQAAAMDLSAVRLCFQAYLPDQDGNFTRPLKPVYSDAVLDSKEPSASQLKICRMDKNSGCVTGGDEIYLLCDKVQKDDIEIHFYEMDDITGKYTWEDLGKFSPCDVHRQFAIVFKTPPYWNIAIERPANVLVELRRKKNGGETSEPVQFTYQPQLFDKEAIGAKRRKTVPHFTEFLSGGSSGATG
Test: protein-binding microarray (PBM); PBM: ~300 nM protein, 6 mM HEPES pH 7.8, 80 mM KCl, 0.5 mM EDTA, 0.5 mM EGTA, 6% glycerol, 35 ng/ul poly-dIdC, 1% milk, 1 h, room temperature; Ap Aiptasia and Nv Nematostella (sea anemones) / Co Capsaspora / Aq Amphimedon (sponge) / Dm Drosophila / Hu human; RHD is the Rel homology domain; high values mean tight binding
Details: dsDNA, one strand shown

SEQ_TEXT	TARGET_OR_TEST_SYSTEM	binding signal, z-score
CCGATTAACATCAATTCCCAAGGTGATGTTAATCGGGTCTTGATTCGCTTGACGCTGCTG	GST-Nv-NF-kB (Ser allele) (Nematostella vectensis, UniProt A7UNT2 2-411)	2.02
CCGATTAACATCAGGATTTTACCTGATGTTAATCGGGTCTTGATTCGCTTGACGCTGCTG	GST-Nv-NF-kB (Ser allele) (Nematostella vectensis, UniProt A7UNT2 2-411)	3.67
CCGATTAACATCAAATTGGGAAATGATGTTAATCGGGTCTTGATTCGCTTGACGCTGCTG	GST-Nv-NF-kB (Ser allele) (Nematostella vectensis, UniProt A7UNT2 2-411)	2.19
CCGATTAACATCACCGGAATTCCTGATGTTAATCGGGTCTTGATTCGCTTGACGCTGCTG	GST-Nv-NF-kB (Ser allele) (Nematostella vectensis, UniProt A7UNT2 2-411)	1.56
CCGATTAACATCAGAATTCCCACTGATGTTAATCGGGTCTTGATTCGCTTGACGCTGCTG	GST-Nv-NF-kB (Ser allele) (Nematostella vectensis, UniProt A7UNT2 2-411)	3.68
CCGATTAACATCAACTCGGGAAATGATGTTAATCGGGTCTTGATTCGCTTGACGCTGCTG	GST-Nv-NF-kB (Ser allele) (Nematostella vectensis, UniProt A7UNT2 2-411)	2.66
CCGATTAACATCAGGGGGTGTACTGATGTTAATCGGGTCTTGATTCGCTTGACGCTGCTG	GST-Nv-NF-kB (Ser allele) (Nematostella vectensis, UniProt A7UNT2 2-411)	3.99
CCGATTAACATCAGGCCCCCCCCTGATGTTAATCGGGTCTTGATTCGCTTGACGCTGCTG	GST-Nv-NF-kB (Ser allele) (Nematostella vectensis, UniProt A7UNT2 2-411)	3.9
CCGATTAACATCAGGGGGGGTTATGATGTTAATCGGGTCTTGATTCGCTTGACGCTGCTG	GST-Nv-NF-kB (Ser allele) (Nematostella vectensis, UniProt A7UNT2 2-411)	4.34
CCGATTAACATCAAGGGGTCCCCTGATGTTAATCGGGTCTTGATTCGCTTGACGCTGCTG	GST-Nv-NF-kB (Ser allele) (Nematostella vectensis, UniProt A7UNT2 2-411)	2.59
CCGATTAACATCAGAGTCCCCCCTGATGTTAATCGGGTCTTGATTCGCTTGACGCTGCTG	GST-Nv-NF-kB (Ser allele) (Nematostella vectensis, UniProt A7UNT2 2-411)	5.12
CCGATTAACATCAAAAATCCCATTGATGTTAATCGGGTCTTGATTCGCTTGACGCTGCTG	GST-Nv-NF-kB (Ser allele) (Nematostella vectensis, UniProt A7UNT2 2-411)	1.88
CCGATTAACATCACGAGTTTCCCTGATGTTAATCGGGTCTTGATTCGCTTGACGCTGCTG	GST-Nv-NF-kB (Ser allele) (Nematostella vectensis, UniProt A7UNT2 2-411)	5.41
CCGATTAACATCAGGGGTAAAACTGATGTTAATCGGGTCTTGATTCGCTTGACGCTGCTG	GST-Nv-NF-kB (Ser allele) (Nematostella vectensis, UniProt A7UNT2 2-411)	3.62
CCGATTAACATCAGGGACTCACCTGATGTTAATCGGGTCTTGATTCGCTTGACGCTGCTG	GST-Nv-NF-kB (Ser allele) (Nematostella vectensis, UniProt A7UNT2 2-411)	2.72
CCGATTAACATCACTTTTTCCCATGATGTTAATCGGGTCTTGATTCGCTTGACGCTGCTG	GST-Nv-NF-kB (Ser allele) (Nematostella vectensis, UniProt A7UNT2 2-411)	4.35
CCGATTAACATCAGATTTCTCCCTGATGTTAATCGGGTCTTGATTCGCTTGACGCTGCTG	GST-Nv-NF-kB (Ser allele) (Nematostella vectensis, UniProt A7UNT2 2-411)	3.47
CCGATTAACATCAGGCGAGTCCCTGATGTTAATCGGGTCTTGATTCGCTTGACGCTGCTG	GST-Nv-NF-kB (Ser allele) (Nematostella vectensis, UniProt A7UNT2 2-411)	2.72
CCGATTAACATCAAGGAAAACCCTGATGTTAATCGGGTCTTGATTCGCTTGACGCTGCTG	GST-Nv-NF-kB (Ser allele) (Nematostella vectensis, UniProt A7UNT2 2-411)	1.6
CCGATTAACATCAGATAAACCCCTGATGTTAATCGGGTCTTGATTCGCTTGACGCTGCTG	GST-Nv-NF-kB (Ser allele) (Nematostella vectensis, UniProt A7UNT2 2-411)	3.09
CCGATTAACATCAGGGGAGGAAATGATGTTAATCGGGTCTTGATTCGCTTGACGCTGCTG	GST-Nv-NF-kB (Ser allele) (Nematostella vectensis, UniProt A7UNT2 2-411)	4.9
CCGATTAACATCAGGGGAAGGTATGATGTTAATCGGGTCTTGATTCGCTTGACGCTGCTG	GST-Nv-NF-kB (Ser allele) (Nematostella vectensis, UniProt A7UNT2 2-411)	5.76
CCGATTAACATCAATTTCCCGCCTGATGTTAATCGGGTCTTGATTCGCTTGACGCTGCTG	GST-Nv-NF-kB (Ser allele) (Nematostella vectensis, UniProt A7UNT2 2-411)	4.4
CCGATTAACATCAAGGACTTCCCTGATGTTAATCGGGTCTTGATTCGCTTGACGCTGCTG	GST-Nv-NF-kB (Ser allele) (Nematostella vectensis, UniProt A7UNT2 2-411)	2.77
CCGATTAACATCACTGGGAATTCTGATGTTAATCGGGTCTTGATTCGCTTGACGCTGCTG	GST-Nv-NF-kB (Ser allele) (Nematostella vectensis, UniProt A7UNT2 2-411)	3
CCGATTAACATCACGGGAAACTCTGATGTTAATCGGGTCTTGATTCGCTTGACGCTGCTG	GST-Nv-NF-kB (Ser allele) (Nematostella vectensis, UniProt A7UNT2 2-411)	3.54
CCGATTAACATCAGGGAAAGTAATGATGTTAATCGGGTCTTGATTCGCTTGACGCTGCTG	GST-Nv-NF-kB (Ser allele) (Nematostella vectensis, UniProt A7UNT2 2-411)	5.14
CCGATTAACATCAGGGAAACCCATGATGTTAATCGGGTCTTGATTCGCTTGACGCTGCTG	GST-Nv-NF-kB (Ser allele) (Nematostella vectensis, UniProt A7UNT2 2-411)	3.84
CCGATTAACATCAAAAAACCGTTTGATGTTAATCGGGTCTTGATTCGCTTGACGCTGCTG	GST-Nv-NF-kB (Ser allele) (Nematostella vectensis, UniProt A7UNT2 2-411)	2.22
CCGATTAACATCAACACCCCCCCTGATGTTAATCGGGTCTTGATTCGCTTGACGCTGCTG	GST-Nv-NF-kB (Ser allele) (Nematostella vectensis, UniProt A7UNT2 2-411)	3.82
CCGATTAACATCAGATTTACCGCTGATGTTAATCGGGTCTTGATTCGCTTGACGCTGCTG	GST-Nv-NF-kB (Ser allele) (Nematostella vectensis, UniProt A7UNT2 2-411)	1.31
CCGATTAACATCAGCTTGGGAAATGATGTTAATCGGGTCTTGATTCGCTTGACGCTGCTG	GST-Nv-NF-kB (Ser allele) (Nematostella vectensis, UniProt A7UNT2 2-411)	1.58
CCGATTAACATCAGGACTTTACCTGATGTTAATCGGGTCTTGATTCGCTTGACGCTGCTG	GST-Nv-NF-kB (Ser allele) (Nematostella vectensis, UniProt A7UNT2 2-411)	2.66
CCGATTAACATCAGGGAACCCCATGATGTTAATCGGGTCTTGATTCGCTTGACGCTGCTG	GST-Nv-NF-kB (Ser allele) (Nematostella vectensis, UniProt A7UNT2 2-411)	1.33
CCGATTAACATCAGGGATTCCCATGATGTTAATCGGGTCTTGATTCGCTTGACGCTGCTG	GST-Nv-NF-kB (Ser allele) (Nematostella vectensis, UniProt A7UNT2 2-411)	3.26
CCGATTAACATCACCTCCCCCCCTGATGTTAATCGGGTCTTGATTCGCTTGACGCTGCTG	GST-Nv-NF-kB (Ser allele) (Nematostella vectensis, UniProt A7UNT2 2-411)	4.34
